- method: refractive index (Na D-line) (dimensionless)
- measurementConditions: 293.15 K; 101.33 kPa; Liquid; Standard Abbe refractometry
metricName: refractive index

>  <molecule>
CCO

>  <endpointResult>
1.36134

$$$$
>  <molecule>
CO

>  <endpointResult>
1.32826

$$$$
>  <molecule>
CCCCO

>  <endpointResult>
1.39911

$$$$
>  <molecule>
CCCO

>  <endpointResult>
1.38461

$$$$
>  <molecule>
CC12CCC(CC1)C(C)(C)O2 [1,3,3-trimethyl-2-oxabicyclo[2.2.2]octane]

>  <endpointResult>
1.45756

$$$$

* * *

- measurementConditions: 293.15 K; 101.33 kPa; Liquid; Vibrating tube method
metricName: mass density (kg/m3)

>  <compound>
CCO

>  <metricName>
mass density

>  <unitsSymbol>
kg/m3

>  <endpointResult>
789.38

$$$$
>  <compound>
CC12CCC(CC1)C(C)(C)O2 [1,3,3-trimethyl-2-oxabicyclo[2.2.2]octane]

>  <metricName>
mass density

>  <unitsSymbol>
kg/m3

>  <endpointResult>
924.84

$$$$
>  <compound>
CO

>  <metricName>
mass density

>  <unitsSymbol>
kg/m3

>  <endpointResult>
791.2

$$$$
>  <compound>
CCCCO

>  <metricName>
mass density

>  <unitsSymbol>
kg/m3

>  <endpointResult>
809.75

$$$$
>  <compound>
CCCO

>  <metricName>
mass density

>  <unitsSymbol>
kg/m3

>  <endpointResult>
803.85

$$$$
